- test.protocol: qHTS of pediatric cancer cell lines to identify multiple opportunities for drug repurposing: Primary screen for control Hh wild type fibroblast cells (AID 1347106); further: nearly all actives have a fitted effect of over 55% in size; further: potency means the concentration at half of the fitted maximal effect
- measurement.parameters: Hh wild-type fibroblast viability, CellTiter-Glo luminescence, 48 h; series mostly up to 46 µM
Results filed as inconclusive are left out. Activity calls are given as the source filed them. The call rests on the fitted dose curve; in most records, active means well fitted cell-killing curve with a large enough effect; inconclusive means small, poorly fitted or top-dose-only effect; inactive means flat fitted curve, though single readings scatter.
parameter: Potency

Examples from the recorded data:
Cc1[nH]c2ccccc2c1CCNCc1ccc(C=CC(=O)NO)cc1	1.87 µM (active)
COc1cc2c(Oc3ccc(NC(=O)C4(C(=O)Nc5ccc(F)cc5)CC4)cc3F)ccnc2cc1OCCCN1CCOCC1	26.4 µM (active)
CC(C)[C@H](C(=O)Nc1ccc(C(=O)NO)cc1)c1ccccc1	16.6 µM (active)
Cc1cnc(-c2cnc(NCCNc3ccc(C#N)cn3)nc2-c2ccc(Cl)cc2Cl)[nH]1	inactive
CN1CCN(Cc2ccc(NC(=O)Nc3ccc(Oc4cc(NC(=O)C5CC5)ncn4)cc3)cc2C(F)(F)F)CC1	8.33 µM (active)

input: Requested field: Potency. Item: CCCCN1CCC(CNC(=O)c2c3n(c4ccccc24)CCCO3)CC1
output: 1.18 µM (active)

input: Moving on to CCCn1c(=O)c2[nH]c(-c3cnn(Cc4cccc(C(F)(F)F)c4)c3)nc2n(CC)c1=O
output: inactive

input: Now give it for O=C(Nc1nc2cccc(-c3ccc(CN4CCS(=O)(=O)CC4)cc3)n2n1)C1CC1 too.
output: inactive

input: O=c1c2ccccc2nc2n1CCc1c-2[nH]c2ccccc12 ?
output: inactive

input: Let us now turn to Cc1ccc(-c2ncn(-c3ccc(Nc4nccc(-c5cccc(N6CCOCC6)c5)n4)cc3)n2)cn1
output: 0.166 µM (active)

input: Also check CC1(C)OC2=C(C(=O)c3ccccc3C2=O)[C@H](NCc2ccccc2)[C@H]1O
output: 23.5 µM (active)

input: Another compound to check: CC(C)=CCCC(C)=CCCC(C)=CCSc1ccccc1C(=O)O
output: 8.33 µM (active)

input: Same lookup for CC(C)(C)NC(=O)[C@H]1CN(Cc2cccnc2)CCN1C[C@@H](O)C[C@@H](Cc1ccccc1)C(=O)N[C@H]1c2ccccc2C[C@H]1O , please.
output: inactive

input: Next: COc1cc2c(Nc3ccc(NC(=O)c4ccccc4)cc3)ncnc2cc1OCCCN1CCOCC1
output: inactive
